Reference for the values: patent US10676431B2

Target: human FPR1 (Homo sapiens (Human))
Assay: FPR1 cyclic adenosine monophosphate (cAMP) assay
Settings: CHO cells overexpressing human FPR1; forskolin 10 μM, IBMX 200 μM; inhibition of cAMP production, HTRF; read-out: hFPR1 cAMP EC50
measured.metric: log10 EC50 (log10 of the value in nM)

>>> meas_value("O=C(Nc1ccc(C(F)(F)F)cc1)N[C@@H]1CCN(c2ccc(-c3ccccc3CO)c(F)c2F)C1=O")
2.70
>>> meas_value("CP(C)(=O)c1ccccc1-c1ccc(N2C(=O)[C@H](NC(=O)Nc3ccc(C(F)(F)F)cc3F)C[C@H]2CO)c(F)c1F")
2.43
>>> meas_value("CS(=O)(=O)Nc1ccccc1-c1ccc(N2CC[C@@H](NC(=O)Nc3cnc(Cl)cn3)C2=O)c(F)c1F")
3.18
>>> meas_value("CS(=O)(=O)Nc1ccccc1-c1ccc(N2CC[C@@H](NC(=O)Nc3c(F)cc(Cl)cc3F)C2=O)c(F)c1F")
3.23
>>> meas_value("Cc1c(N2CC[C@@H](NC(=O)Nc3ccc(Cl)cc3F)C2=O)ccc(-c2ccccc2P(C)(C)=O)c1F")
1.88
>>> meas_value("CC1C[C@@H](NC(=O)Nc2ccc(Cl)cc2F)C(=O)N1c1ccc(-c2ccccc2P(C)(C)=O)c(F)c1F (stereo in doubt)")
2.59
>>> meas_value("CP(C)(=O)c1ncccc1-c1ccc(N2C(=O)[C@H](NC(=O)Nc3ccc(C(F)(F)F)cc3F)C[C@H]2CO)c(F)c1F")
2.38
>>> meas_value("CP(C)(=O)c1ccccc1-c1ccc(N2CC[C@@H](NC(=O)Nc3cnc(Cl)cn3)C2=O)c(C2CC2)c1")
2.86
>>> meas_value("CP(C)(=O)c1c(F)cccc1-c1ccc(N2CC[C@@H](NC(=O)Nc3ccc(C(F)(F)F)cc3F)C2=O)c(F)c1Cl")
1.32
>>> meas_value("CP(C)(=O)c1ccccc1-c1ccc(N2CC[C@@H](NC(=O)Nc3ccc(Cl)cc3F)C2=O)c(Cl)c1F")
2.38
>>> meas_value("CP(C)(=O)c1ccccc1-c1ccc(N2C(=O)[C@@H](NC(=O)Nc3ccc(Cl)cc3F)C[C@H]2CO)c(F)c1F")
2.73
>>> meas_value("CP(C)(=O)c1c(F)cccc1-c1ccc(N2CC[C@@H](NC(=O)Nc3ccc(Cl)cc3F)C2=O)c(F)c1F")
1.30

* * *

Biological target: UniProt P25090
Assay: FPR2 cyclic adenosine monophosphate (cAMP) assay
Settings: CHO cells overexpressing human FPR2; forskolin 5 μM, IBMX 200 μM; inhibition of cAMP production, HTRF; read-out: hFPR2 cAMP2 EC50
measured.metric: EC50 (nM)

>>> meas_value("CP(C)(=O)c1ccccc1-c1ccc(N2CC[C@@H](NC(=O)Nc3ccc(Cl)s3)C2=O)c(F)c1F [Example 135]")
2.9
>>> meas_value("CP(C)(=O)c1ccccc1-c1cc(F)c(N2CC[C@@H](NC(=O)Nc3ccc(C(F)(F)F)cc3F)C2=O)c(F)c1 [Example 76]")
4.1
>>> meas_value("O=C(Nc1ccc(Cl)cc1)N[C@@H]1CCN(c2ccc(-c3cccnc3F)c(F)c2F)C1=O [Example 19]")
22
>>> meas_value("CS(=O)(=O)Nc1ccccc1-c1ccc(N2CC[C@@H](NC(=O)Nc3ccc(Cl)cc3F)C2=O)c(C2CC2)c1 [Example 26]")
0.55

* * *

Biological target: human FPR2 (Homo sapiens (Human))
Sequence (P25090 whole entry): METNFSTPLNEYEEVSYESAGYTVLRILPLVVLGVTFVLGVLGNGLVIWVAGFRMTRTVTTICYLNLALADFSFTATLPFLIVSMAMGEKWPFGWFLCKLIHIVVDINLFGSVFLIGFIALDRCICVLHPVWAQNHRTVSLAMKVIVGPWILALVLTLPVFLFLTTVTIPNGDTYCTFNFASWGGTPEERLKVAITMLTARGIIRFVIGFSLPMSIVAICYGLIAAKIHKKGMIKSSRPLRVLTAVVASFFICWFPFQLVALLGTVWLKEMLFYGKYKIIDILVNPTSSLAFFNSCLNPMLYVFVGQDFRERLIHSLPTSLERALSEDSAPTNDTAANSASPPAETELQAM
Test: FPR2 cyclic adenosine monophosphate (cAMP) assay
Conditions: CHO cells overexpressing human FPR2; forskolin 5 μM, IBMX 200 μM; inhibition of cAMP production, HTRF; read-out: hFPR2 cAMP2 EC50
Description: FPR2 and FPR1 Cyclic Adenosine Monophosphate (cAMP) Assays. […] The level of intracellular cAMP was determined using the HTRF HiRange cAMP assay reagent kit (Cisbio) according to manufacturer's instruction. […] After a 1-h room temperature incubation, time-resolved fluorescence intensity was measured using the Envision (Perkin-Elmer) at 400 nm excitation and dual emission at 590 nm and 665 nm. […]
Overview of reported EC50 across a group of compounds:
measured.metric: EC50 (nM)

>>> meas_value("CP(C)(=O)c1ccccc1-c1ccc(N2CC[C@@H](NC(=O)Nc3ccc(C(F)(F)F)cc3F)C2=O)c(F)c1OC(F)(F)F [Example 88]")
5.3
>>> meas_value("COc1ccc(NC(=O)N[C@@H]2CCN(c3ccc(-c4ccccc4P(C)(C)=O)c(F)c3F)C2=O)cc1 [Example 65]")
1.2
>>> meas_value("CP(C)(=O)c1ccccc1-c1ccc(N2CC[C@@H](NC(=O)Nc3ccc(Cl)cc3F)C2=O)c(F)c1Cl [Example 81]")
0.52
>>> meas_value("CCOP(C)(=O)c1ccccc1-c1ccc(N2CC[C@@H](NC(=O)Nc3ccc(C(F)(F)F)cc3F)C2=O)c(F)c1F (stereo partly shown) [Example 105]")
6.9

* * *

Target: human FPR1 (Homo sapiens (Human), UniProt P21462)
Sequence (P21462 whole entry): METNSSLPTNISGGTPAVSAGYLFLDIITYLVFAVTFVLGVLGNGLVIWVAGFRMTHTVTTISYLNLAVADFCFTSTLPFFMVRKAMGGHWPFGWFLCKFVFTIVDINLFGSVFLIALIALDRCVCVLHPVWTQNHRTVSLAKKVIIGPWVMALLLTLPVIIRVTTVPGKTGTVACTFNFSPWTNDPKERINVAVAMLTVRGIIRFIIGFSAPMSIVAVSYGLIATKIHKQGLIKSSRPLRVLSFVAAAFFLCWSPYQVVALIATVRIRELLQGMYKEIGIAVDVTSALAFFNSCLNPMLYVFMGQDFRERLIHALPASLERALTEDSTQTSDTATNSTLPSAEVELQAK
Assay: FPR1 cyclic adenosine monophosphate (cAMP) assay
Conditions: CHO cells overexpressing human FPR1; forskolin 10 μM, IBMX 200 μM; inhibition of cAMP production, HTRF; read-out: hFPR1 cAMP EC50
Assign labels as follows, please: condition met for EC50 below 0.2 µM; condition not met for EC50 equal to or exceeding 0.2 µM.

>>> assigned_category("CS(=O)(=O)Nc1ccccc1-c1ccc(N2CC[C@@H](NC(=O)Nc3ccc(C(F)(F)F)cc3)C2=O)c(F)c1F [Example 6]")
"condition met"
>>> assigned_category("CP(C)(=O)c1ncccc1-c1ccc(N2CC[C@@H](NC(=O)Nc3ccc(Cl)cc3F)C2=O)c(F)c1F [Example 74]")
"condition met"
>>> assigned_category("CC(C)c1cc(-c2ccccc2P(C)(C)=O)ccc1N1CC[C@@H](NC(=O)Nc2ncc(Cl)cc2F)C1=O [Example 61]")
"condition not met"
>>> assigned_category("CC(N)c1cccc(-c2ccc(N3CC[C@@H](NC(=O)Nc4ccc(Cl)cc4)C3=O)c(F)c2F)c1 (some centres unmarked) [Example 12]")
"condition not met"
>>> assigned_category("CS(=O)(=O)Nc1ccccc1-c1ccc(N2CC[C@@H](NC(=O)Nc3ccc(C(F)(F)F)cc3F)C2=O)c(F)c1F [Example 33]")
"condition not met"
>>> assigned_category("CP(C)(=O)c1ccccc1-c1ccc(N2CC[C@@H](NC(=O)Nc3ccc(C(F)(F)F)cn3)C2=O)c(F)c1F [Example 64]")
"condition not met"
>>> assigned_category("CP(C)(=O)c1ncccc1-c1ccc(N2CC[C@@H](NC(=O)Nc3ccc(C(F)(F)F)cc3F)C2=O)c(F)c1F [Example 73]")
"condition met"
>>> assigned_category("CP(C)(=O)c1ccccc1-c1ccc(N2CC[C@@H](NC(=O)Nc3ccc(Cl)s3)C2=O)c(F)c1F [Example 135]")
"condition not met"
>>> assigned_category("CP(C)(=O)c1ccccc1-c1ccc(N2CC(CO)[C@@H](NC(=O)Nc3ccc(Cl)cc3F)C2=O)c(F)c1F (some centres unmarked) [Example 125]")
"condition met"
>>> assigned_category("CP(C)(=O)c1ccccc1-c1ccc(N2CC[C@@H](NC(=O)Nc3ccc(C(F)(F)F)cc3F)C2=O)c(F)c1Cl [Example 77]")
"condition met"
>>> assigned_category("CP(C)(=O)c1ccccc1-c1ccc(N2CC[C@@H](NC(=O)Nc3ccc(Cl)cc3F)C2=O)c(F)c1OC(F)(F)F [Example 87]")
"condition met"
>>> assigned_category("CP(C)(=O)c1ccccc1-c1cc(F)c(N2CC[C@@H](NC(=O)Nc3ccc(C(F)(F)F)cc3F)C2=O)c(F)c1 [Example 76]")
"condition not met"
>>> assigned_category("CC1(C)CN(c2ccc(-c3ccccc3P(C)(C)=O)c(F)c2F)C(=O)[C@@H]1NC(=O)Nc1ccc(C(F)(F)F)cc1F [Example 102]")
"condition not met"
>>> assigned_category("CC(C)c1cc(-c2ccccc2S(C)(=O)=O)ccc1N1CC[C@@H](NC(=O)Nc2ccc(Cl)cc2F)C1=O [Example 40]")
"condition met"

* * *

Overview of reported EC50 across a group of compounds:
Biological target: human FPR1 (Homo sapiens (Human), UniProt P21462)
Assay: FPR1 cyclic adenosine monophosphate (cAMP) assay
Details: CHO cells overexpressing human FPR1; forskolin 10 μM, IBMX 200 μM; inhibition of cAMP production, HTRF; read-out: hFPR1 cAMP EC50
measured.metric: EC50 (nM)

>>> meas_value("CC(C)c1cc(-c2ccccc2NS(C)(=O)=O)ccc1N1CC[C@@H](NC(=O)Nc2ccc(C(F)(F)F)cc2F)C1=O")
170
>>> meas_value("CP(C)(=O)c1ccccc1-c1ccc(N2CC[C@@H](NC(=O)Nc3ccc(Cl)cc3F)C2=O)c(C(F)(F)F)c1F")
200
>>> meas_value("CS(=O)(=O)Nc1ccccc1-c1ccc(N2CC[C@@H](NC(=O)Nc3ccc(Cl)cc3)C2=O)c(F)c1F")
200
>>> meas_value("CP(C)(=O)c1ccccc1-c1ccc(N2CC(CO)[C@@H](NC(=O)Nc3ccc(C(F)(F)F)cc3F)C2=O)c(F)c1F (stereo partly shown)")
760
>>> meas_value("CP(C)(=O)c1ccccc1-c1ccc(N2CC[C@@H](NC(=O)Nc3ccc(Cl)cc3F)C2=O)c(F)c1C(F)F")
200
>>> meas_value("CC1C[C@@H](NC(=O)Nc2ccc(Cl)cc2F)C(=O)N1c1ccc(-c2cccnc2P(C)(C)=O)c(F)c1F (stereo partly shown) [Example 122]")
610
>>> meas_value("Cn1ccc(-c2ccc(N3CC[C@@H](NC(=O)Nc4ccc(Cl)cc4F)C3=O)c(F)c2F)n1")
550
